# testSystem: Thrombin (Homo sapiens, UniProt P00734)
# assayRemarks: thrombin inhibition activity assay (D.4), specific activity
# Assay type: biochemical
# particulars: before PEG modification; activity relative to wild type PN-1
Measured REL TO WT, BEFORE PEG MODIFICATION values are reported for all entries that follow.
assayMetric: REL TO WT, BEFORE PEG MODIFICATION

molecule="N99C;N140C (protein, UniProt P07093 20-398, looked up, variant N99C N140C) Glia-derived nexin: SHFNPLSLEELGSNTGIQVFNQIVKSRPHDNIVISPHGIASVLGMLQLGADGRTKKQLAMVMRYGVNGVGKILKKINKAIVSKKNKDIVTVANAVFVKCASEIEVPFVTRNKDVFQCEVRNVNFEDPASACDSINAWVKCETRDMIDNLLSPDLIDGVLTRLVLVNAVYFKGLWKSRFQPENTKKRTFVAADGKSYQVPMLAQLSVFRCGSTSAPNDLWYNFIELPYHGESISMLIALPTESSTPLSAIIPHISTKTIDSWMSIMVPKRVQVILPKFTAVAQTDLKEPLKVLGITDMFDSSKANFAKITTGSENLHVSHILQKAKIEVSEDGTKASAATTAILIARSSPPWFIVDRPFLFFIRHNPTGAVLFMGQINKP" assaymetric="REL TO WT, BEFORE PEG MODIFICATION" numericresult=0.40
molecule="N99C (conjugate, UniProt P07093 20-398, looked up, variant N99C, PEG) Glia-derived nexin: SHFNPLSLEELGSNTGIQVFNQIVKSRPHDNIVISPHGIASVLGMLQLGADGRTKKQLAMVMRYGVNGVGKILKKINKAIVSKKNKDIVTVANAVFVKCASEIEVPFVTRNKDVFQCEVRNVNFEDPASACDSINAWVKNETRDMIDNLLSPDLIDGVLTRLVLVNAVYFKGLWKSRFQPENTKKRTFVAADGKSYQVPMLAQLSVFRCGSTSAPNDLWYNFIELPYHGESISMLIALPTESSTPLSAIIPHISTKTIDSWMSIMVPKRVQVILPKFTAVAQTDLKEPLKVLGITDMFDSSKANFAKITTGSENLHVSHILQKAKIEVSEDGTKASAATTAILIARSSPPWFIVDRPFLFFIRHNPTGAVLFMGQINKP" assaymetric="REL TO WT, BEFORE PEG MODIFICATION" numericresult=0.40
